Attribution: ChEMBL document CHEMBL1143122

Test system: UACC-62
EXPERIMENT: Antiproliferative activity against human UACC62 cells after 48 hrs
Format: functional
ASSAY_SETUP: UACC-62, 48 h
MEASUREMENT_TYPE: GI50 (nM)
Give a bare numeral; the unit nM is implied.

Ask | Any idea what its GI50 is? The compound is C[C@@H](NC(=O)CCCCCCCCCCCCCCC[n+]1ccccc1)[C@@H](O)c1ccccc1.[Br-]
Reply | 1480

Ask | Any idea what its GI50 is? The compound is CCCCCCCCCCCCCCN[C@@H](CO)Cc1ccccc1
Reply | 2000

Ask | Any idea what its GI50 is? The compound is CCCCCCCCCCCCCCN[C@H](CO)[C@H](O)c1ccc([N+](=O)[O-])cc1.Cl
Reply | 6460

Ask | Any idea what its GI50 is? The compound is CCCCCCCCCCCCCCN[C@H](C)[C@@H](O)c1ccccc1.Cl
Reply | 1820

Ask | Any idea what its GI50 is? The compound is CCCCCCCCCCCCCCN[C@H](CO)[C@H](O)c1ccccc1
Reply | 1820

Ask | Any idea what its GI50 is? The compound is CCCCCCCCCCCCCCN[C@@H](C)[C@H](O)c1ccccc1
Reply | 1820

Ask | Any idea what its GI50 is? The compound is C[C@H](NC(=O)CCCCCCCCCCCCCCC[n+]1ccccc1)[C@H](O)c1ccccc1.[Br-]
Reply | 1860

====

Test system: HOP-62
EXPERIMENT: Antiproliferative activity against human HOP62 cells after 48 hrs
Type: functional
ASSAY_SETUP: HOP-62, 48 h, read-out: Log TGI (converted)
Kind request: treat 3 µM as inclusive, so TGI at 3 µM or higher is Met, anything lower is Not met.

Ask | Quick check, TGI >= 3 µM? CCCCCCCCCCCCCCN[C@H](CO)[C@H](O)c1ccc([N+](=O)[O-])cc1.Cl
Reply | Met

Ask | Quick check, TGI >= 3 µM? C[C@H](NC(=O)CCCCCCCCCCCCCCC[n+]1ccccc1)[C@H](O)c1ccccc1.[Br-]
Reply | Met

Ask | Quick check, TGI >= 3 µM? C[C@@H](NC(=O)CCCCCCCCCCCCCCC[n+]1ccccc1)[C@@H](O)c1ccccc1.[Br-]
Reply | Met

Ask | Quick check, TGI >= 3 µM? CCCCCCCCCCCCCCN[C@@H](C)[C@H](O)c1ccccc1
Reply | Met

Ask | Quick check, TGI >= 3 µM? CCCCCCCCCCCCCCN[C@H](CO)[C@H](O)c1ccccc1
Reply | Not met

Ask | Quick check, TGI >= 3 µM? CCCCCCCCCCCCCCN[C@@H](CO)Cc1ccccc1
Reply | Not met

Ask | Quick check, TGI >= 3 µM? CCCCCCCCCCCCCCN[C@H](C)[C@@H](O)c1ccccc1.Cl
Reply | Met

====

Test system: TK-10
EXPERIMENT: Antiproliferative activity against human TK10 cells after 48 hrs
Format: functional
ASSAY_SETUP: TK-10, 48 h, read-out: Log LC50 (the source's name) (converted)
For each of the compounds below, state its CC50.

Ask | Any idea what its CC50 is? The compound is CCCCCCCCCCCCCCN[C@@H](CO)Cc1ccccc1
Reply | 6.76 µM

Ask | Any idea what its CC50 is? The compound is C[C@H](NC(=O)CCCCCCCCCCCCCCC[n+]1ccccc1)[C@H](O)c1ccccc1.[Br-]
Reply | 56.2 µM

Ask | Any idea what its CC50 is? The compound is CCCCCCCCCCCCCCN[C@H](CO)[C@H](O)c1ccccc1
Reply | 13.8 µM

Ask | Any idea what its CC50 is? The compound is CCCCCCCCCCCCCCN[C@@H](C)[C@H](O)c1ccccc1
Reply | 6.17 µM

Ask | Any idea what its CC50 is? The compound is C[C@@H](NC(=O)CCCCCCCCCCCCCCC[n+]1ccccc1)[C@@H](O)c1ccccc1.[Br-]
Reply | 40.7 µM

Ask | Any idea what its CC50 is? The compound is CCCCCCCCCCCCCCN[C@H](CO)[C@H](O)c1ccc([N+](=O)[O-])cc1.Cl
Reply | 66.1 µM

Ask | Any idea what its CC50 is? The compound is CCCCCCCCCCCCCCN[C@H](C)[C@@H](O)c1ccccc1.Cl
Reply | 5.75 µM
